Where these numbers come from: patent US9108921B2

System: PKR WT (Homo sapiens)
Experimental Details: PKR WT enzymatic AC50 assay
Assay type: biochemical
Test Context: wild type PKR

# Compound, AC50
records = [
    ("O=C(c1ccc(NS(=O)(=O)c2cccc3c(O)ncnc23)cc1)N1CCC(O)(c2cccc(F)c2F)CC1 [Compound 428]", "< 100 nM"),
    ("CC(C)CC1(O)CCN(C(=O)c2ccc(NS(=O)(=O)c3cccc4c(O)ncnc34)cc2)CC1 [Compound 388]", "< 100 nM"),
    ("N#Cc1cccc(C2(O)CCN(C(=O)c3ccc(NS(=O)(=O)c4cccc5cccnc45)cc3)CC2)c1 [Compound 278]", "101 to 1000 nM"),
    ("CCOCC1(O)CCN(C(=O)c2ccc(NS(=O)(=O)c3cccc4cccnc34)cc2)CC1 [Compound 246]", "101 to 1000 nM"),
    ("N#Cc1cc(C(=O)N2CCC(O)(c3ccccc3Cl)CC2)ccc1NS(=O)(=O)c1cccc2cccnc12 [Compound 273]", "101 to 1000 nM"),
    ("CS(=O)(=O)c1cccc(C2(O)CCN(C(=O)c3ccc(NS(=O)(=O)c4cccc5cccnc45)cc3)CC2)c1 [Compound 182]", "< 100 nM"),
    ("O=C(c1ccc(NS(=O)(=O)c2cccc3cccnc23)cc1Cl)N1CCC(O)(c2ccccc2Cl)CC1 [Compound 157]", "< 100 nM"),
    ("O=C(c1ccc(NS(=O)(=O)c2cccc3nccnc23)cc1)N1CCC(O)(CCCC(F)(F)F)CC1 [Compound 397]", "< 100 nM"),
    ("N#Cc1cc(NS(=O)(=O)c2cccc3cccnc23)ccc1C(=O)N1CCC(O)(c2ccccc2Cl)CC1 [Compound 209]", "< 100 nM"),
    ("O=C(c1ccc(NS(=O)(=O)c2cccc3cccnc23)cc1)N1CCC(O)(Cc2cccnn2)CC1 [Compound 272]", "101 to 1000 nM"),
    ("CCc1ccccc1C1(O)CCN(C(=O)c2ccc(NS(=O)(=O)c3cccc4cccnc34)cc2)CC1 [Compound 127]", "< 100 nM"),
    ("O=C(c1ccc(NS(=O)(=O)c2cccc3cccnc23)cc1)N1CCC(O)(Cc2cccc(F)c2F)CC1 [Compound 169]", "< 100 nM"),
    ("O=C(c1ccc(NS(=O)(=O)c2cccc3cccnc23)cc1OC(F)(F)F)N1CCC(O)(c2ccccc2Cl)CC1 [Compound 136]", "< 100 nM"),
    ("O=C(c1ccc(NS(=O)(=O)c2cccc3cccnc23)cc1)N1CCC(O)(c2cccc3c2OCCO3)CC1 [Compound 284]", "101 to 1000 nM"),
    ("O=C(c1ccc(NS(=O)(=O)c2cccc3nccnc23)cc1)N1CCC(O)(CCC(F)F)CC1 [Compound 230]", "101 to 1000 nM"),
]

----------
Measured AC50 values are reported for all entries that follow.
System: PKR WT (Homo sapiens, UniProt P30613)
Sequence (P30613 whole entry): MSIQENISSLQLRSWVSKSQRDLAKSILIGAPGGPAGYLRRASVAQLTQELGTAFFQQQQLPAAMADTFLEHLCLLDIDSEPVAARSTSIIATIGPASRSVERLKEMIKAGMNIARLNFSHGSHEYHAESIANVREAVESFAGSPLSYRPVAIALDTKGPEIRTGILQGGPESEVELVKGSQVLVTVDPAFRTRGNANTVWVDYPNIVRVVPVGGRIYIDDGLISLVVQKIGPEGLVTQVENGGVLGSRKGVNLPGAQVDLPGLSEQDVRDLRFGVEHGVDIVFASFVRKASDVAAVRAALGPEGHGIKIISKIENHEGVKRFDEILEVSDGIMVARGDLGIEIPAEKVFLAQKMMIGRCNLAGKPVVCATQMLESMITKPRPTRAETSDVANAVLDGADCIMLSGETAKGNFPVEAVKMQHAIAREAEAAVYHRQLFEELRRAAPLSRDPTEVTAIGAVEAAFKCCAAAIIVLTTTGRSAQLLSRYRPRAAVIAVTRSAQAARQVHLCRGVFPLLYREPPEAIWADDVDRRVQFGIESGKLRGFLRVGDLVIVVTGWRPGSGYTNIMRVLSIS
Experimental Details: PKR WT enzymatic AC50 assay
Type: biochemical
Test Context: wild type PKR
Value Kind: AC50

# Molecule, System, Value Kind, Reported Result
records = [
    ("CC(C)CC1(O)CCN(C(=O)c2ccc(NS(=O)(=O)c3cccc4nccnc34)cc2)CC1 [Compound 160]", "PKR WT (Homo sapiens, UniProt P30613)", "AC50", "< 100 nM"),
    ("CC(C)CC1(O)CCN(C(=O)c2ccc(NS(=O)(=O)c3ccnc4scnc34)cc2)CC1 [Compound 314]", "PKR WT (Homo sapiens, UniProt P30613)", "AC50", "1010 to 10000 nM"),
    ("O=C(c1ccc(NS(=O)(=O)c2cccc3cnccc23)cc1)N1CCC(O)(Cc2ccccc2)CC1 [Compound 283]", "PKR WT (Homo sapiens, UniProt P30613)", "AC50", "101 to 1000 nM"),
    ("CC(C)C1(O)CCN(C(=O)c2ccc(NS(=O)(=O)c3cccc4cccnc34)cc2)CC1 [Compound 214]", "PKR WT (Homo sapiens, UniProt P30613)", "AC50", "< 100 nM"),
    ("O=C(c1ccc(NS(=O)(=O)c2cccc3cccnc23)cc1)N1CCC(O)(C2CC2)CC1 [Compound 260]", "PKR WT (Homo sapiens, UniProt P30613)", "AC50", "101 to 1000 nM"),
    ("O=C(c1ccc(NS(=O)(=O)c2c[nH]c3cccnc23)cc1)N1CCC(O)(c2ccccc2Cl)CC1 [Compound 316]", "PKR WT (Homo sapiens, UniProt P30613)", "AC50", "> 10000 nM"),
    ("Nc1nc2c(S(=O)(=O)Nc3ccc(C(=O)N4CCC(O)(c5ccccc5Cl)CC4)cc3)cccc2s1 [Compound 407]", "PKR WT (Homo sapiens, UniProt P30613)", "AC50", "< 100 nM"),
    ("O=C(c1ccc(NS(=O)(=O)c2cccc3cccnc23)cc1)N1CCC(O)(Cc2cccnc2)CC1 [Compound 185]", "PKR WT (Homo sapiens, UniProt P30613)", "AC50", "< 100 nM"),
    ("O=C(c1ccc(NS(=O)(=O)c2cccc3cccnc23)cc1)N1CCC(O)(c2cccc(F)c2)CC1 [Compound 142]", "PKR WT (Homo sapiens, UniProt P30613)", "AC50", "< 100 nM"),
    ("CC(C)CC1(O)CCN(C(=O)c2ccc(NS(=O)(=O)c3cccc4c3OCO4)cc2)CC1 [Compound 423]", "PKR WT (Homo sapiens, UniProt P30613)", "AC50", "< 100 nM"),
    ("O=C(c1ccc(NS(=O)(=O)c2ccc(F)c3cccnc23)cc1)N1CCC(O)(Cc2ccccc2C(F)(F)F)CC1 [Compound 208]", "PKR WT (Homo sapiens, UniProt P30613)", "AC50", "< 100 nM"),
    ("O=C(c1ccc(NS(=O)(=O)c2cccc3cccnc23)cc1)N1CCC(O)(c2ccccc2OC(F)(F)F)CC1 [Compound 150]", "PKR WT (Homo sapiens, UniProt P30613)", "AC50", "< 100 nM"),
    ("CC(F)(F)CCC1(O)CCN(C(=O)c2ccc(NS(=O)(=O)c3cccc4scnc34)cc2)CC1 [Compound 387]", "PKR WT (Homo sapiens, UniProt P30613)", "AC50", "< 100 nM"),
    ("O=C(c1ccc(NS(=O)(=O)c2cccc3nccnc23)cc1)N1CCC(O)(CCC(F)=C(F)F)CC1 [Compound 398]", "PKR WT (Homo sapiens, UniProt P30613)", "AC50", "< 100 nM"),
    ("O=C(c1ccc(NS(=O)(=O)c2cccc3cccnc23)cc1)N1CCC(O)(c2ccccc2O)CC1 [Compound 228]", "PKR WT (Homo sapiens, UniProt P30613)", "AC50", "101 to 1000 nM"),
    ("O=C(c1ccc(NS(=O)(=O)c2cccc3c(O)ncnc23)cc1)N1CCC(O)(CCC(F)(F)F)CC1 [Compound 426]", "PKR WT (Homo sapiens, UniProt P30613)", "AC50", "101 to 1000 nM"),
    ("Nc1nc2cc(S(=O)(=O)Nc3ccc(C(=O)N4CCC(O)(c5ccccc5Cl)CC4)cc3)c(F)cc2s1 [Compound 418]", "PKR WT (Homo sapiens, UniProt P30613)", "AC50", "1010 to 10000 nM"),
    ("O=C(c1ccc(NS(=O)(=O)c2ccc(F)c3scnc23)cc1)N1CCC(O)(c2ccccc2Cl)CC1 [Compound 231]", "PKR WT (Homo sapiens, UniProt P30613)", "AC50", "101 to 1000 nM"),
    ("O=C(c1ccc(NS(=O)(=O)c2cccc3cccnc23)cc1)N1CCC(O)(CC2CC2(F)F)CC1 (centres unmarked) [Compound 176]", "PKR WT (Homo sapiens, UniProt P30613)", "AC50", "< 100 nM"),
    ("N#Cc1ccccc1C1(O)CCN(C(=O)c2ccc(NS(=O)(=O)c3cccc4cccnc34)cc2)CC1 [Compound 266]", "PKR WT (Homo sapiens, UniProt P30613)", "AC50", "101 to 1000 nM"),
]
